Target Or Test System: T1, LRRC7, Q96NW7
T1 sequence (Q96NW7 1440-1537, limits assumed, looked up): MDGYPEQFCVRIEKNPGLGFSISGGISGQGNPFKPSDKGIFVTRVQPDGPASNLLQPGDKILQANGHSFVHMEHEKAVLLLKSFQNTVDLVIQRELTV
Protocol: holdup assay
Parameters: key: below the threshold = too weak to quantify, mostly under pKd 3.1 to 4
Measurement Context: plain residues with an end cap or a label only (N-terminal biotin on a linker: ado-ado)
Quantity Name: pKd

{"Binder": "TRKRSGEAAV [PFKM, P08237]", "Readout Value": "below the threshold"}
{"Binder": "PTPDLPQTRV [KLHDC7A, Q5VTJ3]", "Readout Value": "below the threshold"}
{"Binder": "REEPDHSTEV [CCRL2, O00421]", "Readout Value": "below the threshold"}
{"Binder": "AEASVACSLC [PTGIR, P43119]", "Readout Value": "below the threshold"}
{"Binder": "NNNVVKVDSV [MTNR1A, P48039]", "Readout Value": "below the threshold"}
{"Binder": "PYSESDDDWC [CACNA1A, O00555]", "Readout Value": "below the threshold"}
{"Binder": "AAVENKVTDL [PLXNB1, O43157]", "Readout Value": 3.74}
{"Binder": "DRIQSCLSDA [SBF1, O95248]", "Readout Value": "below the threshold"}
{"Binder": "NVYGIESVKI [GRIA2, P42262]", "Readout Value": 3.49}
{"Binder": "DDASLPVSDV [PLEKHA1, Q9HB21]", "Readout Value": "below the threshold"}
{"Binder": "ARESQKVSHV [FAM110B, Q8TC76]", "Readout Value": "below the threshold"}
{"Binder": "VKRNSKETVV [MARCHF3, Q86UD3]", "Readout Value": 3.79}
{"Binder": "GEDRSPPTAL [MKNK1, Q9BUB5]", "Readout Value": "below the threshold"}
{"Binder": "DPAESMESLV [PTPRG, P23470]", "Readout Value": "below the threshold"}
{"Binder": "RFQQRMQTHV [KIRREL1, Q96J84]", "Readout Value": "below the threshold"}
{"Binder": "ELSATVTTDC [TRIP6, Q15654]", "Readout Value": "below the threshold"}
